Organism: Rattus norvegicus
Experiment: Open TG-GATES - Regimen: Daily Repeat
Assay type: toxicity, organism-based, Sprague-Dawley
Set-up: regimen Daily Repeat, gender Male, age 6 weeks
Conditions: in vivo, po, 0 mg/kg, […], tissue Plasma, route gavage, dose level Control, time 28 day
measurement.type: GLC (mg/dL)
Response body: numeric value in mg/dL, unit text excluded.

Worked examples follow.
Entry under review: CC(C)OC(=O)C(C)(C)Oc1ccc(C(=O)c2ccc(Cl)cc2)cc1 [FENOFIBRATE] . Reported GLC?
186

So what does the record say about GLC for O=C(CCCN1CCC(O)(c2ccc(Cl)cc2)CC1)c1ccc(F)cc1 ?
177.4

More entries:
Data request, read-out GLC, for COc1ccc2[nH]c([S+]([O-])Cc3ncc(C)c(OC)c3C)nc2c1 (stereo not given)
235.4

So what does the record say about GLC for CN1C(=O)CN=C(c2ccccc2)c2cc(Cl)ccc21 ?
182.8

I would be grateful if you could share the reported GLC for CC1=C(/C=C/C(C)=C/C=C/C(C)=C/CO)C(C)(C)CCC1 .
194

* * *

Quick reference for TERMINAL_BW among some compounds
Species on record: Rattus norvegicus
Assay: Open TG-GATES - Regimen: Daily Repeat
Type: toxicity, organism-based, Sprague-Dawley
Parameters: regimen Daily Repeat, gender Male, age 6 weeks
Conditions: in vivo, po, 300 mg/kg, […], route gavage, dose level Middle, time 28 day
Respond numerically; units are g and should not be typed.

Entry NC(N)=Nc1nc(CSCCC(N)=NS(N)(=O)=O)cs1 [FAMOTIDINE] has what TERMINAL_BW?
394.2

Returns the measured TERMINAL_BW for the input compound. Input: CCOC(=O)CCC(=O)O[C@H]1[C@H](O[C@@H]2[C@@H](C)[C@H](O[C@H]3C[C@@](C)(OC)[C@@H](O)[C@H](C)O3)[C@@H](C)C(=O)O[C@H](CC)[C@@](C)(O)[C@H](O)[C@@H](C)C(=O)[C@H](C)C[C@@]2(C)O)O[C@H](C)C[C@@H]1N(C)C [ERYTHROMYCIN ETHYLSUCCINATE]
391.2

Could you share which TERMINAL_BW value was measured for COc1ccc2[nH]c([S+]([O-])Cc3ncc(C)c(OC)c3C)nc2c1 (stereo not given) [OMEPRAZOLE] ?
384.1

Field request: TERMINAL_BW | item: CCOc1ccc(NC(=O)CC(C)O)cc1 (stereo not given) [BUCETIN]
431.8

Continue with the next compound.
What measured TERMINAL_BW goes with COC1=CC(=O)C[C@@H](C)[C@]12Oc1c(Cl)c(OC)cc(OC)c1C2=O [GRISEOFULVIN] ?
406.6

* * *

Listed here are molecules together with their documented APTT.
Species: Rattus norvegicus
Test: Open TG-GATES - Regimen: Single
Format: toxicity, organism-based, Sprague-Dawley
Design: regimen Single, gender Male, age 6 weeks
Details: in vivo, po, 100 mg/kg, 3 h, tissue Blood, route gavage, dose level High
Just the number in s, nothing appended.

Item under review: CN(C)CCCN1c2ccccc2CCc2ccc(Cl)cc21 . Reported APTT?
16.9

***
Return reported APTT; argument: CN(C)CCN(Cc1cccs1)c1ccccn1
21.5

Looking for the measured APTT of CC1=C(/C=C/C(C)=C/C=C/C(C)=C/CO)C(C)(C)CCC1 , can you help?
21.6

Which APTT value is on record for CN(C)CCCN1c2ccccc2CCc2ccccc21 ?
16.3

* * *

Organism: Rattus norvegicus
Experiment: Open TG-GATES - Regimen: Daily Repeat
Assay type: toxicity, organism-based, Sprague-Dawley
Set-up: regimen Daily Repeat, gender Male, age 6 weeks
Details: in vivo, po, 1000 mg/kg, […], tissue Plasma, route gavage, dose level High, time 7 day
measurement.type: RALB (g/dL)
Reply with just the number (in g/dL).

// worked examples, RALB included
Name the reported RALB value associated with the molecule COC1=CC(=O)C[C@@H](C)[C@]12Oc1c(Cl)c(OC)cc(OC)c1C2=O [GRISEOFULVIN]
3.4

Please report the recorded RALB for NC(N)=Nc1nc(CSCCC(N)=NS(N)(=O)=O)cs1 [FAMOTIDINE] .
3.4

Fill in: RALB of COc1ccc2[nH]c([S+]([O-])Cc3ncc(C)c(OC)c3C)nc2c1 (stereo unspecified) [OMEPRAZOLE] is ___
3.5

Item CCOC(=O)CCC(=O)O[C@H]1[C@H](O[C@@H]2[C@@H](C)[C@H](O[C@H]3C[C@@](C)(OC)[C@@H](O)[C@H](C)O3)[C@@H](C)C(=O)O[C@H](CC)[C@@](C)(O)[C@H](O)[C@@H](C)C(=O)[C@H](C)C[C@@]2(C)O)O[C@H](C)C[C@@H]1N(C)C [ERYTHROMYCIN ETHYLSUCCINATE] has what recorded RALB?
2.8

Further cases:
Tell me the measured RALB of CCOc1ccc(NC(=O)CC(C)O)cc1 (stereo unspecified) [BUCETIN] , please.
2.8

Please report the recorded RALB for CC(C)OC(=O)C(C)(C)Oc1ccc(C(=O)c2ccc(Cl)cc2)cc1 [FENOFIBRATE] .
3

* * *

Items are presented alongside their recorded Lym.
Species: Rattus norvegicus
Test: Open TG-GATES - Regimen: Single
Type: toxicity, organism-based, Sprague-Dawley
Set-up: regimen Single, gender Male, age 6 weeks
Conditions: in vivo, po, 100 mg/kg, 6 h, tissue Blood, route gavage, dose level High
Answer format reminder: number followed by unit.

For orientation, consider the following solved cases.
Given the entry CN(C)CCCN1c2ccccc2CCc2ccc(Cl)cc21 , report its measured Lym.
75.6%

Record request: Lym value, item CN(C)CCN(Cc1cccs1)c1ccccn1
76%

Bench note: what Lym did CC1=C(/C=C/C(C)=C/C=C/C(C)=C/CO)C(C)(C)CCC1 show?
73.8%

// next item, Lym requested
Would you kindly share the measured Lym for CN(C)CCCN1c2ccccc2CCc2ccccc21 ?
71.2%

* * *

Species: Rattus norvegicus
Assay: Open TG-GATES - Regimen: Daily Repeat
Assay type: toxicity, organism-based, Sprague-Dawley
Design: regimen Daily Repeat, gender Male, age 6 weeks
Conditions: in vivo, po, 1000 mg/kg, 72 h, tissue Plasma, route gavage, dose level High, time 3 day
measurement.type: PL (mg/dL)
Note: unit mg/dL is implicit; provide only the numeric part.

For the compound CC(C)OC(=O)C(C)(C)Oc1ccc(C(=O)c2ccc(Cl)cc2)cc1 [FENOFIBRATE] , what PL is on record?
129.2

Any idea what PL was measured for CCOc1ccc(NC(=O)CC(C)O)cc1 (stereo unspecified) ?
161.4

Sample COC1=CC(=O)C[C@@H](C)[C@]12Oc1c(Cl)c(OC)cc(OC)c1C2=O — what was its PL?
125.8

***
Name the reported PL value associated with the compound COc1ccc2[nH]c([S+]([O-])Cc3ncc(C)c(OC)c3C)nc2c1 (stereo unspecified)
207.4

Suppose we examine the compound NC(N)=Nc1nc(CSCCC(N)=NS(N)(=O)=O)cs1 ; what PL value has been reported?
137.8

Query (compound): CCOC(=O)CCC(=O)O[C@H]1[C@H](O[C@@H]2[C@@H](C)[C@H](O[C@H]3C[C@@](C)(OC)[C@@H](O)[C@H](C)O3)[C@@H](C)C(=O)O[C@H](CC)[C@@](C)(O)[C@H](O)[C@@H](C)C(=O)[C@H](C)C[C@@]2(C)O)O[C@H](C)C[C@@H]1N(C)C [ERYTHROMYCIN ETHYLSUCCINATE] ; field requested: PL
155.6

* * *

Entries and their Na
Species on record: Rattus norvegicus
Test: Open TG-GATES - Regimen: Daily Repeat
Type: toxicity, organism-based, Sprague-Dawley
Design: regimen Daily Repeat, gender Male, age 6 weeks
Conditions: in vivo, po, 0 mg/kg, […], tissue Plasma, route gavage, dose level Control, time 28 day
Answer with a number only, understood to be in meq/L.

A selection of reference data follows.
I am curious: what Na value has been reported for COC1=CC(=O)C[C@@H](C)[C@]12Oc1c(Cl)c(OC)cc(OC)c1C2=O ?
141.2

Report Na for CN1C(=O)CN=C(c2ccccc2)c2cc(Cl)ccc21 please.
139.4

# input molecule: O=C(CCCN1CCC(O)(c2ccc(Cl)cc2)CC1)c1ccc(F)cc1 ; wanted: its Na
140

Now consider a different molecule.
Need Na of CC1=C(/C=C/C(C)=C/C=C/C(C)=C/CO)C(C)(C)CCC1 , thanks.
141.2

* * *

ALP: recorded values
Organism: Rattus norvegicus
Experiment: Open TG-GATES - Regimen: Daily Repeat
Format: toxicity, organism-based, Sprague-Dawley
Set-up: regimen Daily Repeat, gender Male, age 6 weeks
Settings: in vivo, po, 300 mg/kg, 72 h, tissue Plasma, route gavage, dose level Middle, time 3 day
Give the value in IU/L but do not write IU/L after it.

Here's what some known entries look like.
Which ALP value is on record for CCOc1ccc(NC(=O)CC(C)O)cc1 (stereo not given) ?
1855.6

Which ALP value belongs to CCOC(=O)CCC(=O)O[C@H]1[C@H](O[C@@H]2[C@@H](C)[C@H](O[C@H]3C[C@@](C)(OC)[C@@H](O)[C@H](C)O3)[C@@H](C)C(=O)O[C@H](CC)[C@@](C)(O)[C@H](O)[C@@H](C)C(=O)[C@H](C)C[C@@]2(C)O)O[C@H](C)C[C@@H]1N(C)C [ERYTHROMYCIN ETHYLSUCCINATE] ?
1728.8

Consider the molecule shown here: COc1ccc2[nH]c([S+]([O-])Cc3ncc(C)c(OC)c3C)nc2c1 (stereo not given) What is its recorded ALP?
925.8

Continuing:
For the molecule NC(N)=Nc1nc(CSCCC(N)=NS(N)(=O)=O)cs1 , what ALP is on record?
998.8

Which ALP value belongs to COC1=CC(=O)C[C@@H](C)[C@]12Oc1c(Cl)c(OC)cc(OC)c1C2=O ?
836.2
